Experiment: Phase 1 rising-single-dose pharmacokinetic study in healthy adult subjects (Example 1)
Assay type: in vivo, human
Settings: human, plasma, po, 200 mg, single oral dose 200 mg, mean, n = 6; read-out: AUC(tf)
Reported endpoint: AUC (ng·h/mL)
Only the number, expressed in ng·h/mL, is required.

Exam item: For CC(C)(C)NC(=O)N[C@H](C(=O)N1C[C@H]2[C@@H]([C@H]1C(=O)NC(CC1CCC1)C(=O)C(N)=O)C2(C)C)C(C)(C)C (mixture of isomers) , what is its reported AUC?
Marked response: 831

###

Assay: Food-effect crossover bioavailability study, 600 mg fed vs fasted, healthy adult subjects (Example 2)
Type: in vivo, human
Conditions: both sexes, human, plasma, po, 600 mg, 600 mg PO, fed, n = 20; read-out: AUC(tf), model-based (least square) mean
Reported endpoint: AUC (µg·h/mL)
Response body: numeric value in µg·h/mL, unit text excluded.

Exam item: Any idea what its AUC is? The molecule is CC(C)(C)NC(=O)N[C@H](C(=O)N1C[C@H]2[C@@H]([C@H]1C(=O)NC(CC1CCC1)C(=O)C(N)=O)C2(C)C)C(C)(C)C (mixture of isomers) [Formula Ia]
Marked response: 3.5
